Parameter pKd, tested on Galectin-7 (Homo sapiens, UniProt P47929), listed per item.
Sequence (P47929 whole entry): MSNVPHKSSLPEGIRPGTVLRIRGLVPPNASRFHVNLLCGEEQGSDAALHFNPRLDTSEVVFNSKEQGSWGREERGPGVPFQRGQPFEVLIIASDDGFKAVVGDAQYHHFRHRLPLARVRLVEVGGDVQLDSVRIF
pKd: −log10 of the molar value.

>  <Cpd Smiles>
CO[C@H]1O[C@H](CO)[C@H](O)[C@H](n2cc(-c3ccccc3NS(=O)(=O)c3cc(C(F)(F)F)cc(C(F)(F)F)c3)nn2)[C@H]1O

>  <System Name>
Galectin-7 (Homo sapiens, UniProt P47929)

>  <pKd>
< 3.00

$$$$

[in] pKd of O=S(=O)(Nc1ccccc1-c1cn([C@@H]2[C@@H](O)[C@@H](Sc3ccc(Cl)c(Cl)c3)O[C@H](CO)[C@@H]2O)nn1)c1cc(C(F)(F)F)cc(C(F)(F)F)c1 on Galectin-7 (Homo sapiens, UniProt P47929)?
[out] < 3.22
